- STUDY TARGET: anti-CD28 Fab (SEQ ID NOs: 696, 697)
- Sequence (as listed by the source): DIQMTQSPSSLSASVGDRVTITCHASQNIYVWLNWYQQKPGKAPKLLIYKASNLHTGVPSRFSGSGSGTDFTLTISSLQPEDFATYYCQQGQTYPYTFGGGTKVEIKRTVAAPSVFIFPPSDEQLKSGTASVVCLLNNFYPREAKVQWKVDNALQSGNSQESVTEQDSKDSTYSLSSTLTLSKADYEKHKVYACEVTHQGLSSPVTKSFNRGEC
- Sequence (as listed by the source): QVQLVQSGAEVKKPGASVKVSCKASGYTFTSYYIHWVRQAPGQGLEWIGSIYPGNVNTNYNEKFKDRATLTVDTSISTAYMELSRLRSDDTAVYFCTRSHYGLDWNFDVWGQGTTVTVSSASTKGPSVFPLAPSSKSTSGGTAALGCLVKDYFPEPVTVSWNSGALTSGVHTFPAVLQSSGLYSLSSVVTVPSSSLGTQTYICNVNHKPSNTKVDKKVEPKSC
- ASSAY INFO: anti-CD28 Fab binding to peptides, ELISA
- MEASUREMENT CONDITIONS: Table 26; anti-CD28 Fab
Assign pEC50 to each entry below.
Answers are plain numbers, as −log10 of the molar value.

Consider the worked cases shown below.
query: Give pEC50 (anti-CD28 Fab (SEQ ID NOs: 696, 697)) of the following sequence: YCEGHSQEYLWKCL [Peptide-128]
result: 7.23

query: Give pEC50 (anti-CD28 Fab (SEQ ID NOs: 696, 697)) of the following sequence: YCEGHLPEYIEKCL [Peptide-120]
result: 8.51

Count: 7. Required value per item: pEC50.
1. YCEGHLPEYLGKCL [Peptide-125]
2. YCEGHRPEYILKCL [Peptide-118]
3. YCEGHLPEYIWKCL [Peptide-135]
4. YCEGHAPEYIRKCL [Peptide-122]
5. YCAGHAWQYINKCL [Peptide-87]
6. YCEGHSSEYIQKCL [Peptide-129]
7. YCEGHAPEYIGKCL [Peptide-136]

result:
7.92
7.18
8.68
8.11
7.51
7.52
7.35
